test system: ECHCG (Echinochloa crus-galli); assay: Postemergence herbicidal evaluation; format: in vivo, (L.) Beau; details: postemergence, rate 0.0320 kg/ha
So I've got a bunch of compounds here, and I need their ECHCG herbicidal rating values.
Answers are plain numbers.

Cn1c(C(F)(F)F)cc(=O)n(-c2ccc3snc(C4OC(C)(C)C(C)(C)O4)c3c2)c1=O
2.0
Cn1c(C(F)(F)F)cc(=O)n(-c2ccc3snc(-c4sccc4CO)c3c2)c1=O
0.0
Cn1c(C(F)(F)F)cc(=O)n(-c2ccc3snc(C4OCC5(CO4)CO5)c3c2)c1=O (stereo not drawn)
3.0
Cn1c(C(F)(F)F)cc(=O)n(-c2ccc3snc(C4OCC(CCl)O4)c3c2)c1=O (stereo not drawn)
3.0

// for each compound in input: emit ECHCG herbicidal rating
1. Cn1c(C(F)(F)F)cc(=O)n(-c2ccc3snc(-c4nc5ccccc5[nH]c4=O)c3c2)c1=O
2. COCC1COC(c2nsc3ccc(-n4c(=O)cc(C(F)(F)F)n(C)c4=O)cc23)O1 (stereo not drawn)
3. Cn1c(C(F)(F)F)cc(=O)n(-c2ccc3snc(-c4nccs4)c3c2)c1=O
4. CCN=C1NC(=O)C(OC)(c2nsc3ccc(-n4c(=O)cc(C(F)(F)F)n(C)c4=O)cc23)N1 (stereo not drawn)
5. Cn1c(C(F)(F)F)cc(=O)n(-c2ccc3snc(C4(O)C(=O)NC(=N)C4(C)C)c3c2)c1=O (stereo not drawn)

[2.0, 3.0, 1.0, 2.0, 1.0]

// for each compound in input: emit ECHCG herbicidal rating
1. CCCC1COC(c2nsc3ccc(-n4c(=O)cc(C(F)(F)F)n(C)c4=O)cc23)O1 (stereo not drawn)
2. Cn1c(C(F)(F)F)cc(=O)n(-c2ccc3snc(-c4sccc4CBr)c3c2)c1=O
3. Cn1c(C(F)(F)F)cc(=O)n(-c2ccc3snc(C4=NCCO4)c3c2)c1=O
4. Cn1c(C(F)(F)F)cc(=O)n(-c2ccc3snc(C4(C)OCCO4)c3c2)c1=O
5. Cc1cnn(-c2nsc3ccc(-n4c(=O)cc(C(F)(F)F)n(C)c4=O)cc23)c1
6. Cn1c(C(F)(F)F)cc(=O)n(-c2ccc3snc(C4OCCCS4)c3c2)c1=O (stereo not drawn)

[4.0, 0.0, 3.0, 1.0, 0.0, 3.0]

* * *

test system: ORYSAT (Rice, Tebonnet); test: Flooded paddy, post-transplant rice tolerance; type: in vivo, Oryza sativa, (L.) Tebonnet; settings: flooded paddy, post-transplant rice; rate 0.1250 kg/ha; rated 3-4 weeks after treatment; 0-9 rating scale
So I've got a bunch of compounds here, and I need their herbicidal rating, ORYSAT (rice tolerance) values.
One number for each entry.

Sample records with herbicidal rating, ORYSAT (rice tolerance):
Cn1c(C(F)(F)F)cc(=O)n(-c2ccc3snc(C4SCCN4C(=O)c4ccccc4)c3c2)c1=O (stereo not shown) [Compound 30]
5.0
COc1ccsc1-c1nsc2ccc(-n3c(=O)cc(C(F)(F)F)n(C)c3=O)cc12 [Compound 10]
4.0

// for each compound in input: emit herbicidal rating, ORYSAT (rice tolerance)
1. CCCC1COC(c2nsc3ccc(-n4c(=O)cc(C(F)(F)F)n(C)c4=O)cc23)O1 (stereo not shown) [Compound 77]
2. C[C@@H]1OC(c2nsc3ccc(-n4c(=O)cc(C(F)(F)F)n(C)c4=O)cc23)O[C@@H]1C (stereo partly shown) [Compound 47]
3. Cn1c(C(F)(F)F)cc(=O)n(-c2ccc3snc(C4OC(=O)C(C)(C)O4)c3c2)c1=O (stereo not shown) [Compound 71]
4. Cn1c(C(F)(F)F)cc(=O)n(-c2ccc3snc(C4OCCO4)c3c2)c1=O [Compound 45]
5. Cc1cscc1-c1nsc2ccc(-n3c(=O)cc(C(F)(F)F)n(C)c3=O)cc12 [Compound 26]
6. Cn1ccnc1-c1nsc2ccc(-n3c(=O)cc(C(F)(F)F)n(C)c3=O)cc12 [Compound 5]
7. Cc1nnc(-c2nsc3ccc(-n4c(=O)cc(C(F)(F)F)n(C)c4=O)cc23)o1 [Compound 16]

7.0
9.0
0.0
9.0
4.3
3.0
5.5

// for each compound in input: emit herbicidal rating, ORYSAT (rice tolerance)
1. Cc1cnn(-c2nsc3ccc(-n4c(=O)cc(C(F)(F)F)n(C)c4=O)cc23)c1 [Compound 59]
2. Cc1ccsc1-c1nsc2ccc(-n3c(=O)cc(C(F)(F)F)n(C)c3=O)cc12 [Compound 4]
3. Cc1sccc1-c1nsc2ccc(-n3c(=O)cc(C(F)(F)F)n(C)c3=O)cc12 [Compound 68]
4. COCC1COC(c2nsc3ccc(-n4c(=O)cc(C(F)(F)F)n(C)c4=O)cc23)O1 (stereo not shown) [Compound 64]
5. Cn1c(C(F)(F)F)cc(=O)n(-c2ccc3snc(C4=NCCO4)c3c2)c1=O [Compound 75]
6. CC1=CC(C)(C)OC(c2nsc3ccc(-n4c(=O)cc(C(F)(F)F)n(C)c4=O)cc23)C1 (stereo not shown) [Compound 65]

1. 0.0
2. 4.0
3. 3.5
4. 9.0
5. 6.0
6. 0.0

# get_value(readout='herbicidal rating, ORYSAT (rice tolerance)', item= CCOC(=O)C1CS[C@H](c2nsc3ccc(-n4c(=O)cc(C(F)(F)F)n(C)c4=O)cc23)N1 (stereo partly shown) [Compound 2] )
4.0

All figures here come from patent US6706663B2.
